ASSAY SYSTEM: human NaV1.6 (hNaV1.6) (Homo sapiens (Human))
Sequence (Q9UQD0 whole entry): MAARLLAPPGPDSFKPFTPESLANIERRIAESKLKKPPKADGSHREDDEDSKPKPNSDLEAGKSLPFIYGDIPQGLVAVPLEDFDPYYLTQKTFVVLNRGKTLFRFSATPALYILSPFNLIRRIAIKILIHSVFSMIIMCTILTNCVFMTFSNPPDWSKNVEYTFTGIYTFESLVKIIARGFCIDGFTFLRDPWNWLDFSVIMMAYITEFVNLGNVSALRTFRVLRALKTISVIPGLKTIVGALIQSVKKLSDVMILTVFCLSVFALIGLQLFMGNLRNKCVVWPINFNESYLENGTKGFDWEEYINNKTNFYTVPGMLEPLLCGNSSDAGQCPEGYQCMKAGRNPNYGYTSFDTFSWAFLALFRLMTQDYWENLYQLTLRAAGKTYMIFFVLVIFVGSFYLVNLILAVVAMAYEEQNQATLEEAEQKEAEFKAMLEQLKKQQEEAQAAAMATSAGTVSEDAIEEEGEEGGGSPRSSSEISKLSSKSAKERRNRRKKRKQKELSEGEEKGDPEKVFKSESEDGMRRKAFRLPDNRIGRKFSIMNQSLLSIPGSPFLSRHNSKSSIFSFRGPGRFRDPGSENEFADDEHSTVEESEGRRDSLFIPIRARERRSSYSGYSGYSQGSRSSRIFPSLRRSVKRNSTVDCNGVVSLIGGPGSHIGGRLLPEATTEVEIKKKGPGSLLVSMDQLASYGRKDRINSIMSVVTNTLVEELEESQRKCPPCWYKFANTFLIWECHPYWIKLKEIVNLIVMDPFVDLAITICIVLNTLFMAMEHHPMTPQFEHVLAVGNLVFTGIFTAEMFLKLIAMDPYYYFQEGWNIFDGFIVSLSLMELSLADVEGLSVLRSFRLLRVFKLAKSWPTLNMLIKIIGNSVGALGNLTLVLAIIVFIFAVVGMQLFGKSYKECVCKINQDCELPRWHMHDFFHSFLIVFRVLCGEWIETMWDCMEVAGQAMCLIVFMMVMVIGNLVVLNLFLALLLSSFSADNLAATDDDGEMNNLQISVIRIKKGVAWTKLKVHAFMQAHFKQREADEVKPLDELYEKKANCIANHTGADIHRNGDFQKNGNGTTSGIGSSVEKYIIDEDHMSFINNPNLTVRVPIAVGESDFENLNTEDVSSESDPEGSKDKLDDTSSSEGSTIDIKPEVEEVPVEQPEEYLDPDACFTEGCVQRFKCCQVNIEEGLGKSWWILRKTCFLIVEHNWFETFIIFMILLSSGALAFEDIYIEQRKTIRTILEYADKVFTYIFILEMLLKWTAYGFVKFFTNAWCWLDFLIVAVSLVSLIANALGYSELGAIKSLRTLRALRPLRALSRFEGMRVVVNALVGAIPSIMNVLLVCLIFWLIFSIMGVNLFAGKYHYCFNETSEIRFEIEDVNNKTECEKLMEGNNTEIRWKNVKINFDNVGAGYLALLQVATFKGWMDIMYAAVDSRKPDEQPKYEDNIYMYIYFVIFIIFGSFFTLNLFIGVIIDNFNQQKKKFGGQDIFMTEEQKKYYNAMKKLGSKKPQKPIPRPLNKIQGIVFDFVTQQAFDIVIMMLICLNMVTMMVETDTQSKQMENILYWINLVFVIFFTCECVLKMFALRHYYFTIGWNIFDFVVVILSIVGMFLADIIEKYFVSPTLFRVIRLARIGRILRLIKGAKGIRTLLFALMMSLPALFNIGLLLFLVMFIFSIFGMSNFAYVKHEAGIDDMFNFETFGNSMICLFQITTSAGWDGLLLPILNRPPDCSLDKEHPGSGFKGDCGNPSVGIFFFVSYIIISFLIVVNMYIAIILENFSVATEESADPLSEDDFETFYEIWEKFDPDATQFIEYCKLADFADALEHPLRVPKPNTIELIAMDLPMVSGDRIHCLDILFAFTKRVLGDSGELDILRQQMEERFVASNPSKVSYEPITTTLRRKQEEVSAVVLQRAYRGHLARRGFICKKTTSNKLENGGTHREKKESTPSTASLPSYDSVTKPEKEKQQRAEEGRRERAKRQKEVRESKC
TEST NAME: INaL inhibition at hNaV1.6, PatchXpress electrophysiology
Format: cell-based
ASSAY SETUP: HEK293; 1 μM; HEK-293 cells expressing hNaV1.6; late current evoked by 300 nM ATX-II; read-out: INaL v1.6 (1 μM, % Inhibition)
REPORTED METRIC: inhibition at 1 µM

In [3]: df
Out[3]:
                              record_smiles  obs_value
0  COCc1cc(-c2cn3c(C(F)(F)F)nnc3cn2)ccc1C(F)(F)F  30 to 70%
1  Cc1cc(OC(F)(F)F)ccc1-c1cn2c(C(F)(F)F)nnc2cn1      > 70%
2  COCc1cc(-c2ccc3nnc(C(F)(F)F)n3n2)ccc1C(F)(F)F  30 to 70%

Query: inhibition at 1 µM lookup needed for `COc1cc(OC(F)(F)F)ccc1-c1ccc2nnc(C(F)F)n2n1` , thanks.
Result: > 70%

Query: inhibition at 1 µM lookup needed for `FC1(F)CC(Oc2ccc(-c3ccc4nnc(C(F)(F)F)n4n3)cc2)C1` , thanks.
Result: 30 to 70%

Query: inhibition at 1 µM lookup needed for `COc1cc(OC(F)(F)F)ccc1-c1cn2c(C(F)(F)F)nnc2cn1` , thanks.
Result: 30 to 70%

Query: inhibition at 1 µM lookup needed for `O=C(O)c1cc2nnc(C(F)(F)F)n2nc1-c1ccc(OC(F)(F)F)cc1` , thanks.
Result: < 30%

Query: inhibition at 1 µM lookup needed for `Fc1cc(-c2ccc3nnc(C4CC4)n3n2)cnc1OCC(F)(F)F` , thanks.
Result: 30 to 70%

Query: inhibition at 1 µM lookup needed for `FC(F)c1nnc2ccc(-c3ccc([C@H]4CC4(F)F)cc3)nn12` , thanks.
Result: 30 to 70%

Query: inhibition at 1 µM lookup needed for `FC(F)(F)c1nnc2cnc(-c3ccc([C@H]4CC4(F)F)cc3)cn12` , thanks.
Result: 30 to 70%
